test: Oral bioavailability in Sprague-Dawley rat at 10 mg/kg; type: ADME, organism-based; settings: in vivo
READOUT_TYPE: bioavailability (%)
One number for each entry, in %.

Just so you know, measured bioavailability for CN1C(=O)N(c2ccc(C#N)c(C(F)(F)F)c2)C(=O)[C@@]1(CO)c1ccccc1 came out at 56

---

experiment: Volume of distribution at steady state in Sprague-Dawley rat at 3 mg/kg, iv; assay type: ADME, organism-based; set-up: dose 3 mg/kg, route intravenous; conditions: in vivo, read-out: Vdss
READOUT_TYPE: Vd (L/kg)
One number for each entry, in L/kg.

Just so you know, measured Vd for CN1C(=O)N(c2ccc(C#N)c(C(F)(F)F)c2)C(=O)[C@@]1(CO)c1ccccc1 [GLPG0492] came out at 2.5

Reference for the values: ChEMBL document CHEMBL2176936
